Tested on: Escherichia coli TOP10
test-method-notes: shrunken log2 fold change of peptide-encoding DNA abundance (4.5 h post-induction vs induction); higher = less antimicrobial activity (less host growth inhibition)
applied-conditions: time post-induction: 4.5 h; library: site-saturation at positions 5, 18, 19, 20
Recorded shrunken log2 fold change, one value per entry.
endpoint-name: shrunken log2 fold change

[[record]]
macromolecule_sequence = "RRIRWRPPRLPRPRPRPKMHPRP"
value_observed = 0.386

[[record]]
macromolecule_sequence = "RRIRVRPPRLPRPRPRPSNAPRP"
value_observed = 0.111

[[record]]
macromolecule_sequence = "RRIRMRPPRLPRPRPRPKQEPRP"
value_observed = 3.07

[[record]]
macromolecule_sequence = "RRIRVRPPRLPRPRPRPWIWPRP"
value_observed = 0.00605

[[record]]
macromolecule_sequence = "RRIRPRPPRLPRPRPRPNAPPRP"
value_observed = 0.0216


* * *

System: Escherichia coli TOP10;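 further: peptides expressed intracellularly from a pBAD plasmid library in pooled LB shake-flask culture, induced with 0.3% L-arabinose, DNA abundance read by NGS, three biological replicates, DESeq2 with apeglm shrinkage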
test-method-notes: shrunken log2 fold change of peptide-encoding DNA abundance (4.5 h post-induction vs induction); higher = less antimicrobial activity (less host growth inhibition)
applied-conditions: time post-induction: 4.5 h; library: site-saturation at positions 5, 18, 19, 20
Recorded shrunken log2 fold change, one value per entry.
endpoint-name: shrunken log2 fold change

[[record]]
macromolecule_sequence = "RRIRYRPPRLPRPRPRPPRLPRP"
value_observed = 0.0944

[[record]]
macromolecule_sequence = "RRIRSRPPRLPRPRPRPLWQPRP"
value_observed = 0.311

[[record]]
macromolecule_sequence = "RRIRSRPPRLPRPRPRPNCCPRP"
value_observed = -0.105

[[record]]
macromolecule_sequence = "RRIRNRPPRLPRPRPRPEGWPRP"
value_observed = 0.68

[[record]]
macromolecule_sequence = "RRIRMRPPRLPRPRPRPCMKPRP"
value_observed = -0.125

[[record]]
macromolecule_sequence = "RRIRARPPRLPRPRPRPHRHPRP"
value_observed = -0.0481

[[record]]
macromolecule_sequence = "RRIRMRPPRLPRPRPRPPPPPRP"
value_observed = 2.05

[[record]]
macromolecule_sequence = "RRIRERPPRLPRPRPRPMHAPRP"
value_observed = 0.262

[[record]]
macromolecule_sequence = "RRIRDRPPRLPRPRPRPCKKPRP"
value_observed = -0.00395

[[record]]
macromolecule_sequence = "RRIRTRPPRLPRPRPRPVVRPRP"
value_observed = -0.00389

[[record]]
macromolecule_sequence = "RRIRTRPPRLPRPRPRPEDCPRP"
value_observed = 0.0288

[[record]]
macromolecule_sequence = "RRIRKRPPRLPRPRPRPDTEPRP"
value_observed = 1.13

[[record]]
macromolecule_sequence = "RRIRDRPPRLPRPRPRPQQMPRP"
value_observed = -0.0585

[[record]]
macromolecule_sequence = "RRIRIRPPRLPRPRPRPQFDPRP"
value_observed = -0.505

[[record]]
macromolecule_sequence = "RRIRNRPPRLPRPRPRPRCGPRP"
value_observed = 0.0586

[[record]]
macromolecule_sequence = "RRIRQRPPRLPRPRPRPMGTPRP"
value_observed = -0.00257

[[record]]
macromolecule_sequence = "RRIRKRPPRLPRPRPRPCMHPRP"
value_observed = -0.0309

[[record]]
macromolecule_sequence = "RRIRSRPPRLPRPRPRPDMDPRP"
value_observed = -0.201

[[record]]
macromolecule_sequence = "RRIRDRPPRLPRPRPRPLHIPRP"
value_observed = -0.0915

[[record]]
macromolecule_sequence = "RRIRFRPPRLPRPRPRPMTQPRP"
value_observed = -0.421

